Source listed as patent US4486602A.

Catalogue of pIC50 readings, one per entry.
target: maltase (porcine intestinal mucosa); assay: inhibitory activity against maltase, 0.05M maltose as substrate; conditions: Table 2, read-out: IC50 (molar concentration required for 50% inhibition)
The read-out pIC50 is expressed as -log10 of concentration in moles per litre.

Take a look at these entries with their results.
(Q) Return value of pIC50 for input `OCC1=C[C@H](NCc2ccc(O)c(O)c2)[C@H](O)[C@@H](O)[C@@H]1O` , no commentary.
(A) 5.09

(Q) Return value of pIC50 for input OCC1=C[C@H](NC(CO)c2ccccc2)[C@H](O)[C@@H](O)[C@@H]1O (stereo partly drawn) , no commentary.
(A) 4.85

(Q) Return value of pIC50 for input `OCC1=C[C@H](NCc2ccc(Br)cc2)[C@H](O)[C@@H](O)[C@@H]1O` , no commentary.
(A) 4.12

(Q) Return value of pIC50 for input OCC1=C[C@H](NCc2ccc(O)cc2)[C@H](O)[C@@H](O)[C@@H]1O [drawing 43] , no commentary.
(A) 4.72

(Q) Return value of pIC50 for input CC(C)=CCC/C(C)=C/CN[C@H]1C=C(CO)[C@@H](O)[C@H](O)[C@H]1O [drawing 48] , no commentary.
(A) 5.28

---
(Q) Return value of pIC50 for input OCC1=C[C@H](NC(CO)C(O)c2ccccc2)[C@H](O)[C@@H](O)[C@@H]1O (stereo partly drawn) , no commentary.
(A) 5.02

(Q) Return value of pIC50 for input OCC1=C[C@H](NCCc2ccccc2)[C@H](O)[C@@H](O)[C@@H]1O [drawing 38] , no commentary.
(A) 4.96

(Q) Return value of pIC50 for input CC(Cc1ccccc1)N[C@H]1C=C(CO)[C@@H](O)[C@H](O)[C@H]1O (stereo partly drawn) [drawing 46] , no commentary.
(A) 5.62
